System: rumen fermentation (strained rumen fluid)
Test: Rumen in vitro model
Design: species or system steer
Conditions: 5.00 ppm; 24 h
Method: The AAD-609 antibiotics were characterized in a rumen in vitro model to assess their potential as feed additives for ruminants. […] Specifically, strained rumen fluid (10 ml) obtained from a fistulated steer receiving a roughage ration, was mixed with 10 ml of nutrient broth (20 mg casein hydrolysate, 100 mg maltose, 15 mg urea, 400 mg solka floc (cellulose), 100 mg cellobiose and 100 mg starch) and with a selected growth promotant and incubated at 39° C., with oscillation, for 24 hours. […]
Quick reference for IBU (isobutyrate) among some compounds

Some compounds with known IBU (isobutyrate) results, for comparison:
compound	IBU (isobutyrate)
CNC1C(=O)NC2C(=O)NC(C(=O)NC3C(=O)NC4C(=O)NC(C(=O)NC(C(=O)O)c5cc(O)cc(OC6OC(CO)C(O)C(O)C6O)c5-c5cc4ccc5O)C(O)c4cc(Cl)c(c(Cl)c4)Oc4cc3cc(c4OC3OC(C(=O)O)C(O)C(O)C3NC(=O)CCCCCCCCC(C)C)Oc3ccc(cc3Cl)C2O)c2cc(cc(O)c2Cl)Oc2cc1ccc2O (stereo not shown)	86 % of control
CCCCCCCCCC(=O)NC1C(Oc2c3cc4cc2Oc2c(Cl)cc(cc2Cl)C(O)C2NC(=O)C(NC(=O)C4NC(=O)C4NC(=O)C(NC(=O)C(NC)c5ccc(O)c(c5)Oc5cc(O)c(Cl)c4c5)C(O)c4ccc(c(Cl)c4)O3)c3ccc(O)c(c3)-c3c(OC4OC(CO)C(O)C(O)C4O)cc(O)cc3C(C(=O)O)NC2=O)OC(C(=O)O)C(O)C1O (stereo not shown)	75 % of control
CC[C@@]1([C@@H]2O[C@@H]([C@H]3O[C@@](O)(CO)[C@H](C)C[C@@H]3C)C[C@@H]2C)CC[C@H]([C@]2(C)CC[C@]3(C[C@H](O)[C@@H](C)[C@@H]([C@@H](C)[C@@H](OC)[C@H](C)C(=O)O)O3)O2)O1	84 % of control

**Q:** What does the data say about its IBU (isobutyrate)? Entry: CNC1C(=O)NC2C(=O)NC(C(=O)NC3C(=O)NC4C(=O)NC(C(=O)NC(C(=O)O)c5cc(O)cc(OC6OC(CO)C(O)C(O)C6O)c5-c5cc4ccc5O)C(O)c4cc(Cl)c(c(Cl)c4)Oc4cc3cc(c4OC3OC(C(=O)O)C(O)C(O)C3NC(=O)CCCCCCCC(C)C)Oc3ccc(cc3Cl)C2O)c2cc(cc(O)c2Cl)Oc2cc1ccc2O (stereo not shown)
**A:** 95 % of control
